The origin of these recorded values is ChEMBL document CHEMBL5291721.

Each item that follows carries a reported AC50.
- Assayed system: UniProt P08172
- Sequence (P08172 whole entry): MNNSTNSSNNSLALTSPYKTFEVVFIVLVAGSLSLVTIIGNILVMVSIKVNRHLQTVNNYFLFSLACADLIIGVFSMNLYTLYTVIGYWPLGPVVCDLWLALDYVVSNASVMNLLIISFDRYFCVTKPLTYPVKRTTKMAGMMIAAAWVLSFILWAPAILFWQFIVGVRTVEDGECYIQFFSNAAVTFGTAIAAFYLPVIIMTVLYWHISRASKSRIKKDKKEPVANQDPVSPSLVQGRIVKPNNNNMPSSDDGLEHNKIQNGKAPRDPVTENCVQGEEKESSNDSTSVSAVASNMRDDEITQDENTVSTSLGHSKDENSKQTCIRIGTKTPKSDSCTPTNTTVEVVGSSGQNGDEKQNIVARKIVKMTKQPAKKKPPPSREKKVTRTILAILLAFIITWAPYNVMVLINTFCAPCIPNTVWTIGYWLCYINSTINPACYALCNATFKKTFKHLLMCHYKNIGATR
- Type: functional, cell-based
Test readout: AC50

>>> result("CCCO[C@H]1[C@@H]([C@@H](COCc2ccc(Cl)cc2)OCc2ccc(Cl)cc2)OC(OCC)[C@@H]1O (some centres undefined) [CLOBENOSIDE]")
"> 30 µM"
>>> result("CCn1c(=O)c2c(nc(/C=C/c3ccc(OC)c(OC)c3)n2C)n(CC)c1=O")
"> 30 µM"
>>> result("CC(=O)OCC(=O)[C@@]1(O)CC[C@H]2[C@@H]3CCC4=CC(=O)CC[C@]4(C)[C@@]3(F)[C@@H](O)C[C@@]21C [FLUDROCORTISONE ACETATE]")
"> 30 µM"
>>> result("Cc1nnc2n1-c1ccc(Cl)cc1C(c1ccccc1)=NC2")
"> 10 µM"

* * *

- Assayed system: Bile salt export pump (Homo sapiens, UniProt O95342); also: assay procedure not described here
- Sequence (O95342 whole entry): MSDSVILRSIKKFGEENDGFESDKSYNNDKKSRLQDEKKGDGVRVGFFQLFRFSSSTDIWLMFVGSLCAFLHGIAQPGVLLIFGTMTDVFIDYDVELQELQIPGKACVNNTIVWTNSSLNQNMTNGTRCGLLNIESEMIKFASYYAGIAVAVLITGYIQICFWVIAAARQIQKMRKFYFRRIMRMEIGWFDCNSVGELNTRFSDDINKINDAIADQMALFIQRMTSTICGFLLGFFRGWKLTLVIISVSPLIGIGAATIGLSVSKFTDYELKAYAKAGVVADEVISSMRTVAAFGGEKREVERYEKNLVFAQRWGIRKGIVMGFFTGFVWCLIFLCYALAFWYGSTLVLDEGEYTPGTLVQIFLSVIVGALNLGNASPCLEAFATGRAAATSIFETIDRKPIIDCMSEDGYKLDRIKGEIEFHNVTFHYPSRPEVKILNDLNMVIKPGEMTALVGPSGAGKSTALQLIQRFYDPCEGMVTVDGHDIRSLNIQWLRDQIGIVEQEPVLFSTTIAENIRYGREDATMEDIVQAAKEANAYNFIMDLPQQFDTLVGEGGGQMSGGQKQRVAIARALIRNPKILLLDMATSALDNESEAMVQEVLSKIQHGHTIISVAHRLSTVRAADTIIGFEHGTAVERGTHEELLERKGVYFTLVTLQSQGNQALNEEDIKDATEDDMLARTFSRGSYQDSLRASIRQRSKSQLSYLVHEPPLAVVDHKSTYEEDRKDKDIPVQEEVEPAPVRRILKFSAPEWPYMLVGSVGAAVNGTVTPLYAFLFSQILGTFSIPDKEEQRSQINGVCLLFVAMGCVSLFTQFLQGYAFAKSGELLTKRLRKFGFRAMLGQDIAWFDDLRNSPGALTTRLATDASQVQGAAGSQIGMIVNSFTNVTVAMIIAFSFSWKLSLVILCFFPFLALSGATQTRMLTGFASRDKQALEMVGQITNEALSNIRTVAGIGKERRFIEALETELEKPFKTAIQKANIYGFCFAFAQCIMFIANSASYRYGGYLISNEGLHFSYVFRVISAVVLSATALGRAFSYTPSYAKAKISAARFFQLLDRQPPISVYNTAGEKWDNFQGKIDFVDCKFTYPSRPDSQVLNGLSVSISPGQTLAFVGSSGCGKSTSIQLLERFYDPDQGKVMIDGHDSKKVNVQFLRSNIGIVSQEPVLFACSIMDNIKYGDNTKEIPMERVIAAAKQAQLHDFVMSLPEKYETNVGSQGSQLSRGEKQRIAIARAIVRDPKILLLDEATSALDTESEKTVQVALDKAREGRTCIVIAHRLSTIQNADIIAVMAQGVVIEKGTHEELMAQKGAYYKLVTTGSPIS
- Assay type: functional
Test readout: AC50 (µM)

>>> numeric_value("CCCCCCO[C@@H](C)c1cccc(-c2csc(NC(=O)c3cc(Cl)c(/C=C(\\C)C(=O)O)c(Cl)c3)n2)c1OC [LUSUTROMBOPAG]")
4
>>> numeric_value("CCCCCCCC/C=C\\CCCCCCCC(=O)O [OLEIC ACID]")
260

* * *

- Assayed system: Muscarinic acetylcholine receptor M1 (Homo sapiens, UniProt P11229); also: assay procedure not described here
- Sequence (P11229 whole entry): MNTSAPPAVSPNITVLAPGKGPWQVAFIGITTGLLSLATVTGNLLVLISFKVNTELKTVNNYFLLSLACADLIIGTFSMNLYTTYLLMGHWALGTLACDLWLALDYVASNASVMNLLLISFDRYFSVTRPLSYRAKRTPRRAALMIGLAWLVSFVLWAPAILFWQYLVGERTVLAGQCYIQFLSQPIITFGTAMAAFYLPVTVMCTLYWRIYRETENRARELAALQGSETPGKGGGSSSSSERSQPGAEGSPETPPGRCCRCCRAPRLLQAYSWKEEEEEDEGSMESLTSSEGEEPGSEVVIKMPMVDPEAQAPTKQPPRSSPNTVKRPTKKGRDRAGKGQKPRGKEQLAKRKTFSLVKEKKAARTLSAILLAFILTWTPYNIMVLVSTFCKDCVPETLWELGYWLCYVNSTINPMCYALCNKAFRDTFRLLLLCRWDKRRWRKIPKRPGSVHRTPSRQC
- Format: functional, cell-based
Test readout: AC50

>>> result("Cc1ccc2c([nH]c(=O)c3c(=O)cc(C(=O)OCCC(C)C)oc32)c1C")
"> 30 µM"
>>> result("CC(C)Nc1cccnc1N1CCN(C(=O)c2cc3cc(NS(C)(=O)=O)ccc3[nH]2)CC1")
"16.4 µM"
>>> result("CC(C)(C)NCC(O)COc1ccccc1C#N (stereo not given)")
"> 30 µM"
>>> result("CN(C)CCN(Cc1ccccc1)c1ccccn1")
"> 30 µM"
>>> result("N=C(N)NCC1COc2ccccc2O1 (stereo not given)")
"> 30 µM"
>>> result("CN1CCN(C(c2ccccc2)c2ccc(Cl)cc2)CC1 (stereo not given)")
"0.691 µM"
>>> result("CC(O)(CC(=O)O)CC(=O)O")
"9.87 µM"
>>> result("CO[C@@]1(NC(=O)C(C(=O)O)c2ccc(O)cc2)C(=O)N2C(C(=O)O)=C(CSc3nnnn3C)CO[C@@H]21 (stereo not given in full)")
"> 30 µM"
>>> result("OC[C@H]1NC[C@H](O)[C@@H](O)[C@H]1O")
"> 30 µM"
>>> result("CC(C)(Oc1ccc(C(=O)c2ccc(Cl)cc2)cc1)C(=O)O")
"> 30 µM"

* * *

- Assayed system: Mu-type opioid receptor (Homo sapiens, UniProt P35372); also: assay procedure not described here
- Sequence (P35372 whole entry): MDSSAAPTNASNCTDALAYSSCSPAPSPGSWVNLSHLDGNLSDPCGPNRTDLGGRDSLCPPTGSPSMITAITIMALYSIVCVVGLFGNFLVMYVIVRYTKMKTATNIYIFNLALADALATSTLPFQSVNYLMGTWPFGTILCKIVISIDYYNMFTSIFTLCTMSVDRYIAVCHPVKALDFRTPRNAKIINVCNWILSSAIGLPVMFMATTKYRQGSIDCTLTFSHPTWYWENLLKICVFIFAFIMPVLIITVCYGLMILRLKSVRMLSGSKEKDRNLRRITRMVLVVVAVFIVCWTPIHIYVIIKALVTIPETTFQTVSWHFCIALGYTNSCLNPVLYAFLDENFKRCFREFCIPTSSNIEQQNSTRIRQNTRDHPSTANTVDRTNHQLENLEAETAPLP
Each item that follows carries a reported AC50.
Test readout: AC50

>>> result("Nc1ccn(C[C@@H](CO)OCP(=O)(O)O)c(=O)n1")
"> 30 µM"
>>> result("O=NN(CCCl)C(=O)NCCCl")
"> 30 µM"
>>> result("OC(CN1CCCCC1)c1cc(-c2ccccc2)on1 (stereo not given)")
"27.4 µM"
>>> result("CN(C)CCN(Cc1ccccc1)c1ccccn1")
"> 30 µM"
>>> result("Cc1ccc2c([nH]c(=O)c3c(=O)cc(C(=O)OCCC(C)C)oc32)c1C")
"> 30 µM"
>>> result("NC(=O)C1(N2CCCCC2)CCN(CCCN2c3ccccc3CCc3ccccc32)CC1")
"0.342 µM"
>>> result("CC(O)(CC(=O)O)CC(=O)O")
"> 30 µM"
>>> result("[H]/N=C(/N)NS(=O)(=O)c1ccc(N)cc1")
"> 30 µM"
>>> result("CC(C)=CCC/C(C)=C/CC/C(C)=C/CC/C(C)=C/CC1=C(C)C(=O)c2ccccc2C1=O")
"> 30 µM"
>>> result("CC(=O)OCC(=O)[C@@]1(OC(C)=O)[C@@H](C)C[C@H]2[C@@H]3C[C@H](F)C4=CC(=O)C=C[C@]4(C)[C@@]3(F)[C@@H](O)C[C@@]21C [DIFLORASONE DIACETATE]")
"> 30 µM"
>>> result("NS(=O)(=O)c1cc2c(cc1Cl)NC(C(Cl)Cl)NS2(=O)=O (stereo not given) [TRICHLORMETHIAZIDE]")
"> 30 µM"
>>> result("O=C(Cc1cccs1)N[C@@H]1C(=O)N2C(C(=O)[O-])=C(C[n+]3ccccc3)CS[C@H]12")
"> 30 µM"
>>> result("C[C@H]1C[C@H]2[C@@H]3CCC4=CC(=O)C=C[C@]4(C)[C@@]3(F)[C@@H](O)C[C@]2(C)[C@@]1(O)C(=O)CO")
"> 30 µM"
>>> result("NC(=O)N/N=C/c1ccc([N+](=O)[O-])o1")
"> 30 µM"
>>> result("N=C(N)NC(=O)c1nc(Cl)c(N)nc1N [AMILORIDE]")
"> 30 µM"
>>> result("Cn1c(CCCC(=O)O)nc2cc(N(CCCl)CCCl)ccc21")
"> 30 µM"
>>> result("CO[C@@]1(NC(=O)C(C(=O)O)c2ccc(O)cc2)C(=O)N2C(C(=O)O)=C(CSc3nnnn3C)CO[C@@H]21 (stereo not given in full)")
"> 30 µM"
>>> result("CC(CN(C)C)CN1c2ccccc2CCc2ccccc21 (stereo not given)")
"5.7 µM"
>>> result("COc1cc(C[C@@H]2NCCc3cc(O)c(O)cc32)cc(OC)c1OC")
"15.5 µM"
>>> result("N[C@@H](Cc1ccc(N(CCCl)CCCl)cc1)C(=O)O")
"20.6 µM"
>>> result("COc1ccc(C(=O)c2ccccc2)c(O)c1")
"> 30 µM"
>>> result("CCOc1ccc(Cc2nccc3cc(OCC)c(OCC)cc23)cc1OCC")
"> 30 µM"
>>> result("COc1cccc2c1C(=O)c1c(O)c3c(c(O)c1C2=O)C[C@@](O)(C(=O)CO)C[C@@H]3O[C@H]1C[C@H](N)[C@H](O)[C@H](C)O1")
"> 30 µM"
>>> result("CC1=C(/C=C/C(C)=C\\C=C\\C(C)=C\\C(=O)O)C(C)(C)CCC1")
"> 30 µM"
>>> result("CC1(C)CCC(C)(C)c2cc(NC(=O)c3ccc(C(=O)O)cc3)ccc21")
"> 30 µM"
